Molecular target: CB1 (mutant) (Homo sapiens, UniProt P21554)
Sequence (P21554 1-417, change not shown): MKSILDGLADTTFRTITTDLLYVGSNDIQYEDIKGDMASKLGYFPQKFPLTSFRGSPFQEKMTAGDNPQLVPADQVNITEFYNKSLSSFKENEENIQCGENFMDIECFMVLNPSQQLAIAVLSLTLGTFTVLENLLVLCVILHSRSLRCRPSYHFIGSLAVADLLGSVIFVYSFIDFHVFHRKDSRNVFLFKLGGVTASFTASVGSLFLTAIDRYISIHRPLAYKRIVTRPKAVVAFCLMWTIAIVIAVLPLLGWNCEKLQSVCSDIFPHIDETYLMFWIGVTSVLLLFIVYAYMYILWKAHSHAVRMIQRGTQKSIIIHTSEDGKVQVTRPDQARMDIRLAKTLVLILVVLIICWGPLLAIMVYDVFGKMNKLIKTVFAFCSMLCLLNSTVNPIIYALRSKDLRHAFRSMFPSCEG
Assay: R-SAT functional receptor assay, CB1 (mutant, truncated after amino acid 417)
Assay type: cell-based
Details: Appendix A; R-SAT CB1; receptor form not stated; relative to SR141716 (100%); read-out: % Inhibition
Field 'label' (enum: Satisfied / Not satisfied). Set to Satisfied when Emax is strictly under 80%; else Not satisfied.

Reference set, count: 4
| Molecule | Target system | Label |
| --- | --- | --- |
| CONC(=O)c1ccc2c(c1)N=C(c1ccccc1Cl)c1ccccc1S2 | CB1 (mutant) (Homo sapiens, UniProt P21554) | Satisfied |
| O=C(NCc1ccc(F)cc1)c1ccc2c(c1)N=C(c1ccccc1F)c1ccccc1S2 [drawing 925] | CB1 (mutant) (Homo sapiens, UniProt P21554) | Not satisfied |
| CC(CNC(=O)c1ccc2c(c1)N=C(c1ccccc1)c1ccccc1S2)c1ccccc1 (centres unmarked) [drawing 729] | CB1 (mutant) (Homo sapiens, UniProt P21554) | Not satisfied |
| COc1ccc(C2=Nc3cc(C(=O)NCc4ccc(S(N)(=O)=O)cc4)ccc3Sc3ccccc32)cc1 | CB1 (mutant) (Homo sapiens, UniProt P21554) | Not satisfied |

**Q:** Is 80% strictly greater than the molecule's reported Emax? molecule: CCCCNC(=O)c1ccc2c(c1)N=C(c1ccc(Cl)s1)c1ccccc1S2 [drawing 633]
**A:** Not satisfied
